System: NCI-H522 lung
Test description: NCI-60 one-dose screen, 48 h (100 = growth as untreated, 0 = no growth, -100 = all killed)
Measurement parameters: 10 µM
The panel holds about 83,000 compounds, 20% with a hit somewhere; the sample as a whole holds those more often. Active and inactive are the calls of the source. Rule for the calls: active = growth percent below 10; inactive = the rest.
Readout kind: growth

INSERT INTO measurements (molecule, readout_kind, measured_value) VALUES
  ('COc1ccc(C2=Nc3c(C)nn(-c4ccccc4)c3NC(c3ccc(Oc4ccnc5cc(Cl)ccc45)c(OC)c3)C2)cc1 (stereo not given)', 'growth', '62.1% (inactive)'),
  ('FC(F)(F)c1ccc2nc(-c3nc(-c4ccccc4)n4ccccc34)[nH]c2c1', 'growth', '68.3% (inactive)'),
  ('CN(C)c1ccc(Cc2ccc(N(C)C)cc2Cl)c(Cl)c1', 'growth', '80.1% (inactive)'),
  ('CC1=C(N2CCOCC2)C(N2CCOCC2)=C(C)C(=O)C1=O', 'growth', '99.1% (inactive)'),
  ('CCC(=O)N1C/C(=C/c2ccc(Br)cc2)C(=O)/C(=C/c2ccc(Br)cc2)C1', 'growth', '-79.6% (active)'),
  ('O=C(Nc1ccc(OS(=O)(=O)c2ccccc2)cc1)C12CC3CC(CC(C3)C1)C2', 'growth', '50.9% (inactive)'),
  ('COc1cc(/C=N/NC(=O)c2ccccc2Nc2ccnc(C(F)(F)F)c2)ccc1O', 'growth', '102% (inactive)'),
  ('COc1ccc2c(c1)sc1nc(-c3ccccc3)c(-c3ccc(O)c(OC)c3)n12', 'growth', '76.4% (inactive)'),
  ('CCCCCCN1C(=O)C2=C(c3ccc(Cl)cc3)Nc3c(c(C)nn3-c3ccccc3)C2c2ccccc21 (stereo not given)', 'growth', '80.7% (inactive)'),
  ('O=C(Nc1ccncc1)C(=O)c1cn(S(=O)(=O)c2cccc3ccccc23)c2ccccc12', 'growth', '48% (inactive)'),
  ('CN(C)C=Nc1cc(Cl)ccc1Cl', 'growth', '97.2% (inactive)'),
  ('O=C1C(=O)c2ccccc2C(O)=C1CCCc1ccc(C2CCCCCC2)cc1', 'growth', '42% (inactive)'),
  ('COc1cc(/C=C/C(=O)c2ccc(Cl)cc2)ccc1OS(=O)(=O)c1ccc(C)cc1', 'growth', '81.7% (inactive)'),
  ('COc1ccc(-c2cc(-c3ccc(N(C)C)cc3)c(C#N)c(N3CCCC3)n2)cc1', 'growth', '69.4% (inactive)'),
  ('CS(=O)(=O)Nc1cccc(-c2cc(-c3ccccc3Cl)c(C#N)c(N)n2)c1', 'growth', '-7.33% (active)'),
  ('CS(=O)(=O)Nc1ccc(Nc2c3ccccc3nc3cc([N+](=O)[O-])ccc23)cc1', 'growth', '-51.5% (active)'),
  ('COC(=O)C1=NNC(=S)N(c2cc(C)[nH]n2)C(=O)C1', 'growth', '103% (inactive)'),
  ('CC(=O)N1C/C(=C/c2ccc(Cl)cc2)C(=O)/C(=C/c2ccc(Cl)cc2)C1', 'growth', '-66.4% (active)'),
  ('O=[N+]([O-])c1cccc(-c2ncc(-c3ccc(Cl)cc3Cl)[nH]2)c1', 'growth', '-14% (active)'),
  ('COc1cc(NC(=O)c2sc3nc4c(cc3c2N)C(O)CCC4)cc(OC)c1 (stereo not given)', 'growth', '69% (inactive)');
